Compiled from multiple publications: IC50 readings for cGMP-dependent protein kinase (Eimeria tenella, UniProt Q8MMZ8).
OBSERVED PROPERTY: IC50 (nM)

INSERT INTO measurements (compound, recorded_number) VALUES
  ('Nc1nccc(-c2c(-c3ccc(F)cc3)nc3cc(C4CCN(Cc5ccccc5)CC4)ccn23)n1', 0.11),
  ('CN1CCC1CN1CCC(c2cc(-c3ccncc3)c(-c3ccc(F)cc3)[nH]2)CC1 (stereo not given)', 0.28),
  ('CCN(C)Cc1ccn2c(-c3ccnc(N[C@@H](C)c4ccccc4)n3)c(-c3ccc(F)cc3)nc2c1', 0.13);

I = CCCN1CCC(c2cc(-c3ccncc3)c(-c3ccc(F)cc3)[nH]2)CC1
II = CCC(CN(C)C)c1ccn2c(-c3ccnc(N)n3)c(-c3ccc(F)cc3)nc2c1 (stereo not given)
(Q) Between I and II , whose measured IC50 reads higher? Respond with the label that goes with your answer.
(A) I

---

Compiled from multiple publications: IC50 readings for UniProtKB Q8MMZ8.
OBSERVED PROPERTY: IC50 (nM)

Worked cases, IC50 given:
INSERT INTO results (compound, subject_of_test, observed_property, recorded_number) VALUES
  ('CC(C)=CCc1ccc(O)c(C=O)c1C(=O)c1cc(C)cc(OCC(O)C(C)(C)O)c1O (stereo not drawn)', 'UniProtKB Q8MMZ8', 'IC50', 12600),
  ('CN(C)Cc1ccn2c(-c3ccnc(NC(=O)C4CCC4)n3)c(-c3ccc(F)cc3)nc2c1', 'UniProtKB Q8MMZ8', 'IC50', 0.27),
  ('CN(C)CCc1cc(-c2ccncc2)c(-c2ccc(F)cc2)[nH]1', 'UniProtKB Q8MMZ8', 'IC50', 2.5);

P = CCOC(=O)N1CCN(Cc2ccn3c(-c4ccnc(N[C@@H](C)c5ccccc5)n4)c(-c4ccc(F)cc4)nc3c2)CC1
Q = CCN1C[C@H](O)C[C@H]1CN1CCC(c2cc(-c3ccncc3)c(-c3ccc(F)cc3)[nH]2)CC1
(Q) Between P and Q , whose measured IC50 reads higher? Respond with the label that goes with your answer.
(A) P
(P: 5.6 nM, Q: 0.36 nM)

a = OCCCCCN1CCC(c2cc(-c3ccncc3)c(-c3ccc(F)cc3)[nH]2)CC1
b = CN1CCC(c2cc(-c3ccc(F)cc3)c(-c3ccc(F)cc3)[nH]2)CC1
(Q) # compare IC50 for a vs b ; return the one with the smaller value Respond with the label that goes with your answer.
(A) a
(a: 1.46 nM, b: 15.6 nM)

1 = OCC(O)CN1CCC(c2cc(-c3ccncc3)c(-c3ccc(F)cc3)[nH]2)CC1 (stereo in doubt; 5e)
2 = CC(C)(C)CCN1CCC(c2ccn3c(-c4ccnc(N)n4)c(-c4ccc(F)cc4)nc3c2)CC1
3 = Cc1cc(-c2nc3cc(CN(C)C)ccn3c2-c2ccnc(N)n2)ccc1F
4 = N#Cc1ccn2c(-c3ccnc(N)n3)c(-c3ccc(F)cc3)nc2c1
(Q) Sort (4 compounds) by IC50: min first. List each label, following the requested order.
(A) 2, 3, 1, 4
(2: 0.11 nM, 3: 0.23 nM, 1: 1.27 nM, 4: 11.3 nM)

A = CN(CC#N)Cc1ccn2c(-c3ccnc(N)n3)c(-c3ccc(F)cc3)nc2c1
B = C[C@@H](Nc1nccc(-c2c(-c3ccc(F)cc3)nc3cc(CN(C)C)ccn23)n1)c1ccccc1
C = COC(=O)N1CCOC(C(=O)N2CCC(c3cc(-c4ccncc4)c(-c4ccc(F)cc4)[nH]3)CC2)C1 (stereo not drawn)
(Q) Sort (3 compounds) by IC50: min first. List each label, following the requested order.
(A) B, A, C

A = C[C@H](Nc1nccc(-c2c(-c3ccc(F)cc3)nc3cc(CN(C)CC(=O)N4CCCC4)ccn23)n1)c1ccccc1
B = CN1CCN(c2ccn3c(-c4ccnc(N)n4)c(-c4ccc(F)cc4)nc3c2)CC1
(Q) Between A and B , whose measured IC50 reads higher? Respond with the label that goes with your answer.
(A) A

1 = CCN(C)Cc1ccn2c(-c3ccnc(NCC(C)(C)C)n3)c(-c3ccc(F)cc3)nc2c1
2 = NC(=O)c1ccn2c(-c3ccnc(N)n3)c(-c3ccc(F)cc3)nc2c1
(Q) Between 1 and 2 , whose measured IC50 reads higher? Respond with the label that goes with your answer.
(A) 2
(2: 1.8 nM, 1: 0.29 nM)

---

pIC50: −log10 of the molar value.
Compiled from multiple publications: pIC50 readings for cGMP-dependent protein kinase (Eimeria tenella).
OBSERVED PROPERTY: pIC50

Worked cases, pIC50 given:
INSERT INTO results (compound, recorded_number) VALUES
  ('CN(C)Cc1ccn2c(-c3ccncn3)c(-c3ccc(F)cc3)nc2c1', 8.72),
  ('CN1CCC(c2cc(-c3ccncc3)c(-c3ccco3)[nH]2)CC1', 7.95),
  ('CN1CCC(c2cc(-c3ccncc3)c(-c3ccccc3)[nH]2)CC1', 8.51),
  ('CC(=O)N1C[C@H](O)C[C@H]1CN1CCC(c2cc(-c3ccncc3)c(-c3ccc(F)cc3)[nH]2)CC1', 8.66);

1 = CN(C)CC(F)c1ccn2c(-c3ccnc(N)n3)c(-c3ccc(F)cc3)nc2c1 (centres undefined)
2 = CC(=O)N1C[C@H](O)CC1CN1CCC(c2cc(-c3ccncc3)c(-c3ccc(F)cc3)[nH]2)CC1 (some centres undefined)
3 = CCCCCNc1nccc(-c2c(-c3ccc(F)cc3)nc3cc(CN(C)C)ccn23)n1
4 = C[C@H](Nc1nccc(-c2c(-c3ccc(F)cc3)nc3cc(CN(C)CC4CCCO4)ccn23)n1)c1ccccc1 (some centres undefined)
(Q) Sort (4 compounds) by pIC50: min first. List each label, following the requested order.
(A) 2, 1, 4, 3

---

Compiled from multiple publications: IC50 readings for cGMP-dependent protein kinase (Eimeria tenella).
OBSERVED PROPERTY: IC50 (nM)

INSERT INTO measurements (compound, observed_property, recorded_number) VALUES
  ('CN(C)C(C)(C)c1ccn2c(-c3ccnc(N)n3)c(-c3ccc(F)cc3)nc2c1', 'IC50', 0.11),
  ('CN(C)Cc1ccn2c(-c3ccnc(NCCCO)n3)c(-c3ccc(F)cc3)nc2c1', 'IC50', 0.33),
  ('CNC(=O)N1CCCC1c1cc(-c2ccncc2)c(-c2ccc(F)cc2)[nH]1 (centres undefined)', 'IC50', 2.3),
  ('CN(C)Cc1ccn2c(-c3ccnc(Nc4ccccc4)n3)c(-c3ccc(F)cc3)nc2c1', 'IC50', 0.06);

1 = CN1CC[C@H]1CN1CCC(c2cc(-c3ccncc3)c(-c3ccc(F)cc3)[nH]2)CC1
2 = Fc1ccc(-c2[nH]c(C3CCN(CC4CNCCO4)CC3)cc2-c2ccncc2)cc1 (centres undefined)
(Q) # compare IC50 for 1 vs 2 ; return the one with the smaller value Respond with the label that goes with your answer.
(A) 2
(2: 0.17 nM, 1: 0.28 nM)

---

pIC50: −log10 of the molar value.
Compiled from multiple publications: pIC50 readings for cGMP-dependent protein kinase (Eimeria tenella, UniProt Q8MMZ8).
OBSERVED PROPERTY: pIC50

Worked cases, pIC50 given:
INSERT INTO measurements (compound, recorded_number) VALUES
  ('CCCC(c1ccn2c(-c3ccnc(N)n3)c(-c3ccc(F)cc3)nc2c1)N(C)C (stereo not given)', 10.19),
  ('CN(C)Cc1ccn2c(-c3ccnc(NC4CC4)n3)c(-c3ccc(F)cc3)nc2c1', 10.10),
  ('CN1CCCC1c1cc(-c2ccncc2)c(-c2ccc(F)cc2)[nH]1 (stereo not given)', 9.00);

P = CN1CCC(c2cc(-c3ccncc3)c(-c3ccc(O)cc3)[nH]2)CC1
Q = CCN1CCC(c2ccn3c(-c4ccnc(N)n4)c(-c4ccc(F)cc4)nc3c2)CC1
(Q) # compare pIC50 for P vs Q ; return the one with the smaller value Respond with the label that goes with your answer.
(A) P

---

pIC50: −log10 of the molar value.
Compiled from multiple publications: pIC50 readings for UniProtKB Q8MMZ8.
OBSERVED PROPERTY: pIC50

INSERT INTO results (molecule, subject_of_test, recorded_number) VALUES
  ('CCCCCCN1CCC(c2ccn3c(-c4ccnc(N)n4)c(-c4ccc(F)cc4)nc3c2)CC1', 'UniProtKB Q8MMZ8', 9.89);

A = CN1CCC(c2nc(-c3ccc(F)cc3)c(-c3ccncc3)[nH]2)CC1
B = O[C@H]1CN[C@H](CN2CCC(c3cc(-c4ccncc4)c(-c4ccc(F)cc4)[nH]3)CC2)C1
C = Nc1nccc(-c2c(-c3ccc(F)cc3)nc3cc(C4CCN(CC5CC5)CC4)ccn23)n1
D = CN1CCOC(CN2CCC(c3cc(-c4ccncc4)c(-c4ccc(F)cc4)[nH]3)CC2)C1 (stereo not drawn)
E = CC(N)CN1CCC(c2cc(-c3ccncc3)c(-c3ccc(F)cc3)[nH]2)CC1 (stereo not drawn)
(Q) Order the 5 molecules from highest to lowest pIC50. List each label, following the requested order.
(A) C, B, D, A, E
(C: 10.02, B: 9.80, D: 9.17, A: 8.96, E: 8.70)

A = COC[C@H](O)CN1CCC(c2cc(-c3ccncc3)c(-c3ccc(F)cc3)[nH]2)CC1
B = CN(C)Cc1ccn2c(-c3ccnc(N)n3)c(-c3ccc(F)cc3F)nc2c1
(Q) Between A and B , whose measured pIC50 reads higher? Respond with the label that goes with your answer.
(A) B

P = CCCCCCC(O)CN1CCC(c2cc(-c3ccncc3)c(-c3ccc(F)cc3)[nH]2)CC1 (stereo not drawn)
Q = C[C@H](Nc1nccc(-c2c(-c3ccc(F)cc3)nc3cc(CN(C)CCCN(C)C)ccn23)n1)c1ccccc1
(Q) Between P and Q , whose measured pIC50 reads higher? Respond with the label that goes with your answer.
(A) Q

1 = CN1CCC(c2nc(-c3ccc(F)cc3)c(-c3ccncc3)o2)CC1
2 = C[C@H](Nc1nccc(-c2c(-c3ccc(F)cc3)nc3cc(CN(C)CCO)ccn23)n1)c1ccccc1
(Q) # compare pIC50 for 1 vs 2 ; return the one with the smaller value Respond with the label that goes with your answer.
(A) 1
(1: 9.01, 2: 9.96)
